Where these numbers come from: patent US12091426B2

molecular target: HPK1 (Homo sapiens, UniProt Q92918); construct: A HiBiT tag was introduced by CRISPR on the N terminus of HPK1 in Jurkat cells; host or cells: Jurkat cells (ATCC TIB-152), monoclonal line with CRISPR knock-in of HiBiT at the endogenous HPK1 locus; test: HPK1 Cellular HiBit Degradation Assay; type: cell-based; conditions: Jurkat, HiBiT HPK1 Jurkat cells, 24 hrs; maximum degradation vs DMSO vehicle control; read-out: Dmax Category
Sequence (Q92918 whole entry): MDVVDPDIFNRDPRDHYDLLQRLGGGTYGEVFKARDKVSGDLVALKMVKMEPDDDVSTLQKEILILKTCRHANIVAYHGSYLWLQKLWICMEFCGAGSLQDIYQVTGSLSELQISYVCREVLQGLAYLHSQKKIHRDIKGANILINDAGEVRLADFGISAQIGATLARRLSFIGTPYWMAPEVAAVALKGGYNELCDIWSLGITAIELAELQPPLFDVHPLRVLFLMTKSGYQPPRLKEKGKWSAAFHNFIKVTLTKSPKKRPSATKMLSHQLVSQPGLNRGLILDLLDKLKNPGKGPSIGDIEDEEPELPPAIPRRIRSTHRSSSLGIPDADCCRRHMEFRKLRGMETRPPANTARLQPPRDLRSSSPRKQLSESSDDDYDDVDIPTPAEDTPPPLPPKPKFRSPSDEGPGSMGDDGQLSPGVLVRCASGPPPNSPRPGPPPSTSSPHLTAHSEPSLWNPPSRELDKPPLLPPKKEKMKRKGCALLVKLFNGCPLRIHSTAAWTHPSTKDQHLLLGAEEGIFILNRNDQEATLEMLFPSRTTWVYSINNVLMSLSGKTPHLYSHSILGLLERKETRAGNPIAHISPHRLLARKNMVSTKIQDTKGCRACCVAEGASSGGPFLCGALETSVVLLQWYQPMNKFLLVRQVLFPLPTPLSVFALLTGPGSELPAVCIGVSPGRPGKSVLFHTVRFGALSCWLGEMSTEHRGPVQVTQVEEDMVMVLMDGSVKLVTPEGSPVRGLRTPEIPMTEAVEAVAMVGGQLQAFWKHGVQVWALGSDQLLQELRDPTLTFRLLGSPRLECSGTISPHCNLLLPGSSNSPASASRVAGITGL
Reported Endpoint: Dmax

Challenge: Give the reported value of Dmax for this record: CC(C)n1cnc2cc(-c3ccc4c(c3)N([C@H]3C[C@@H](N5CCCCC5)C3)C(=O)C43CCN(C(=O)C4CN(C(=O)C5CCN(c6ccc(C7CCC(=O)NC7=O)cn6)CC5)CCC45CCC5)CC3)nc(NC3CC3)c21 (mixture of isomers)
Response given: 70 to 85%

Challenge: Give the reported value of Dmax for this record: CC(C)n1cnc2cc(-c3ccc4c(c3)N([C@H]3C[C@@H](N5CCCCC5)C3)C(=O)C43CCN(C(=O)[C@@H]4CCN(C(=O)[C@H]5CC[C@H](Oc6ccc(C7CCC(=O)NC7=O)cn6)CC5)C4)CC3)nc(Nc3ccncc3F)c21 (mixture of isomers)
Response given: 70 to 85%

====

biological target: HPK1 (Homo sapiens, UniProt Q92918); construct: A HiBiT tag was introduced by CRISPR on the N terminus of HPK1 in Jurkat cells; host or cells: Jurkat cells (ATCC TIB-152), monoclonal line with CRISPR knock-in of HiBiT at the endogenous HPK1 locus; assay: HPK1 Cellular HiBit Degradation Assay; format: cell-based; settings: Jurkat, HiBiT HPK1 Jurkat cells, 24 hrs; maximum degradation vs DMSO vehicle control; read-out: Dmax Category
Reported Endpoint: Dmax

Challenge: Give the reported value of Dmax for this record: CC(C)n1cnc2cc(-c3ccc4c(c3)N([C@H]3C[C@@H](N5CCCCC5)C3)C(=O)C43CCN(C(=O)C4CC5(C4)CN(C(=O)C4CCN(c6ccc(C7CCC(=O)NC7=O)cn6)CC4)C5)CC3)nc(NC3CC3)c21 (stereo partly shown) [Example 182]
Response given: > 85%

Challenge: Give the reported value of Dmax for this record: CC(C)n1cnc2cc(-c3ccc4c(c3)N([C@H]3C[C@@H](N5CCCCC5)C3)C(=O)C43CCN(C(=O)[C@@H]4CCN(C(=O)[C@H]5CC[C@H](N(C)c6cccc7c6C(=O)N(C6CCC(=O)NC6=O)C7=O)CC5)C4)CC3)nc(NC3CC3)c21 (mixture of isomers) [Example 129]
Response given: 70 to 85%

Challenge: Give the reported value of Dmax for this record: CC(C)n1cnc2cc(-c3ccc4c(c3)N([C@H]3C[C@@H](N5CCCCC5)C3)C(=O)C43CCN(C(=O)C4CCN(C(=O)[C@H]5CC[C@H](C(=O)N6CCc7cc(C8CCC(=O)NC8=O)ccc7C6)CC5)CC4)CC3)nc(Nc3ccccc3F)c21 (stereo partly shown) [Example 48]
Response given: 70 to 85%

Challenge: Give the reported value of Dmax for this record: CC(C)n1cnc2cc(-c3ccc4c(c3)N([C@H]3C[C@@H](N5CCCCC5)C3)C(=O)C43CCN(C(=O)[C@@H]4CCN(C(=O)[C@H]5CC[C@H](Nc6ccc(C7CCC(=O)NC7=O)cc6)CC5)C4)CC3)nc(Nc3ccccc3F)c21 (mixture of isomers) [Example 3]
Response given: > 85%
